molecular target: Urokinase-type plasminogen activator (Homo sapiens, UniProt P00749)
Value Type: Ki (nM)

>>> test_value("N=C(N)c1ccc2nc(-c3cc(Cl)cc(-c4cccc(N)c4)c3O)[nH]c2c1")
0.46

----------
Target sequence: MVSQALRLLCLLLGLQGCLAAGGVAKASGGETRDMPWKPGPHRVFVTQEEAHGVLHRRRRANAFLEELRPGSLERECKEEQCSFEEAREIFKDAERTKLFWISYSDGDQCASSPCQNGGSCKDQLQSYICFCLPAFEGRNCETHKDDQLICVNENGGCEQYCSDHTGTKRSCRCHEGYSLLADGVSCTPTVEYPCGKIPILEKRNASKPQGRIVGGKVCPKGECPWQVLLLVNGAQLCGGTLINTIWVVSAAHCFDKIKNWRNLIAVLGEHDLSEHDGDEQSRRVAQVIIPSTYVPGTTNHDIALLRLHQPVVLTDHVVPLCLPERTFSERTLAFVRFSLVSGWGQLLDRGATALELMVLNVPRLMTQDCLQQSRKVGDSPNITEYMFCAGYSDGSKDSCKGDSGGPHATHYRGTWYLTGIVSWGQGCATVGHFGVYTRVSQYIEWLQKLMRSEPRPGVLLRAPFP
pKi: −log10 of the molar value.
Value Type: pKi

>>> test_value("N=C(N)c1ccc2[nH]c(-c3cc(-c4nnn[nH]4)cc(-c4cccc([N+](=O)[O-])c4)c3O)cc2c1")
7.30
>>> test_value("N=C(N)c1ccc2[nH]c(-c3cc(CC(N)C(=O)O)cc(-c4cccc([N+](=O)[O-])c4)c3O)cc2c1 (configuration not stated)")
7.30
